Assay: Components of the Cytosolic LPS Sensing Pathway: Gene Identification via Genome-wide siRNA Screen;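 also: robust z of the log signal after scaling to non-targeting control siRNA wells of the plate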
Settings: RAW264.7 macrophages, IL-1a HTRF, actives lie on both sides, screened at 100 nM (by protocol), cells primed 5 h with Pam3CSK4 first
Among all 53,000 sequences or so, about 3,700 (7%) were called active. Shown is part of a subset that was picked to be rich in actives.
Measured z-score, listed per entry for reference.

Study these solved cases before continuing.
CCAGCCGUAUUACAACUACTT against Bpnt1: 2.12 (active)
GGAUAUCAACAGAUACAUCTT against Serpina12: -0.493 (inactive)
GGUCAUUCUAAUGACAAUCTT against Atg14: -0.014 (inactive)
CCAGAACGCGGAGCAAAUUTT against Sec63: 2.13 (active)
CGAGUGUUGAAUAUUGUGATT against Gpr65: 0.158 (inactive)

Form: sequence = GGAGCACUAUGAUGAGUUCTT against U2af1 ; z-score = -0.452 (inactive)

Form: sequence = GCCGGUAAAAUUAAGGUGATT against Cyp2j9 ; z-score = -0.13 (inactive)

* * *

Assay: Components of the Cytosolic LPS Sensing Pathway: Gene Identification via Genome-wide siRNA Screen;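 also: robust z of the log signal after scaling to non-targeting control siRNA wells of the plate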
Conditions: RAW264.7 macrophages, IL-1a HTRF, actives lie on both sides, screened at 100 nM (by protocol), cells primed 5 h with Pam3CSK4 first
The whole screen tested about 53,000 sequences, of which about 3,700 (7%) were called active. This is one part of a sample in which actives are shown more often than they occur.
Quantity Name: z-score
Lab note: jot down the number only; don't add units.

GGCACCAUCUACGACUAUGTT against Gpx5: -0.649
GAGACAAUUGUAACAUUCUTT against Olfr176: 1.2
CCCUAAUAGGUCAAUAAAGTT against Vmn1r71: -0.0066
GGGCAACAUUUUUCAGUGCTT against Prox1: 0.722
GCAAUGCAAAAGAUGCCCUTT against Chchd7: 0.0804

Form: sequence = GUCUGGAUAUUUGACACUATT against Tmem60 ; z-score = -0.637

Form: sequence = GGCUCCUACCAAUCUCACUTT against Calcr ; z-score = -0.548

Form: sequence = GGAUUUUAAACAAAAGACCTT against Stard13 ; z-score = 0.718

Form: sequence = CCUGACGAUUGAGUAUCAUTT against Tubgcp4 ; z-score = -0.267

Form: sequence = GGUCACCUUAUAAUUGCCCTT against Btd ; z-score = -2.83

Form: sequence = GGACAUUCUUUAAGAAGAUTT against Tjp3 ; z-score = -0.584

Form: sequence = CGUGGAAGCUGUGUUAUCUTT against Il34 ; z-score = -0.112

Form: sequence = GGUAAAUGUCUGCUCUGAGTT against Selenok ; z-score = -2.53

* * *

Experiment: Components of the Cytosolic LPS Sensing Pathway: Gene Identification via Genome-wide siRNA Screen;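 also: robust z of the log signal after scaling to non-targeting control siRNA wells of the plate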
Conditions: RAW264.7 macrophages, IL-1a HTRF, actives lie on both sides, screened at 100 nM (by protocol), cells primed 5 h with Pam3CSK4 first
Screen size: about 53,000 sequences; about 3,700 (7%) were called active. This is one part of a sample in which actives are shown more often than they occur.
Class definitions on z-score: low bin: < -0.9; mid bin: ≥ -0.9 and < 2; high bin: ≥ 2

Completed entries (count: 8):
GGAAUACAAAGAUAGCUUCTT against Atrn: mid bin
GGUAGUGAAUGAACUCUUUTT against Bcl2l1: low bin
GGUAUCUGUGCAAGGGCAATT against Defb5: high bin
GGUGGUUUGUGAUGAAAAUTT against Pabpc1: high bin
GGAAAGACCUAAGCAAUUATT against Klhl28: mid bin
GGCUAUCACCUCCAACACCTT against Fkbp8: low bin
GCGGAUUGUCUUCCUAGACTT against Smg9: low bin
GGAACGUGUUCAAAAGAGUTT against Sos1: high bin

Form field 'band' for CCUAAGGUCAAGAUAUAGCTT against Cep55
mid bin

Form field 'band' for GGAAAUCGAUAGUUUCUUCTT against Olfr1302
mid bin

Measured values drawn from PubChem BioAssay AID1508600 for this set.
